system: MDA-MB-435 melanoma; assay: NCI-60 one-dose screen, 48 h; settings: 10 µM
The panel holds about 83,000 compounds, 20% with a hit somewhere; the sample as a whole holds those more often. Active and inactive are the calls of the source. How the source made its calls: active means growth percent below 10; inactive means the rest.
Your answer must be one of the following: true for active, false for inactive

// query Recorded test call requested for O=C(O)CN1C(=O)c2cccc3cccc(c23)C1=O
// result false

// query Any idea what this test logged for CCn1cc(C(=O)O)c(=O)c2cnc(N3CCCC3)nc21 ?
// result false

// query Look up the recorded call for CC/C(=N\N=C(/CC)c1ccc(Br)cc1)c1ccc(Br)cc1 in this test.
// result false

// query Which outcome did this test record for the compound CC12O[C@H](C[C@@H](OC(=O)c3ccccc3)[C@H]1O)n1c3ccccc3c3c4c(c5c6ccccc6n2c5c31)C(=O)NC4=O ?
// result false

// query Dear all, I need the recorded test outcome for CN1CCC(CNc2cc(C3(C(=O)Nc4cc(C(=O)Nc5ccc(Cl)c(C(F)(F)F)c5)ccc4F)CC3)ncn2)CC1 , thank you.
// result true

// query Assay result, entry CSc1nc(=O)n(Cc2ccc(F)cc2)c(=O)n1Cc1ccc(C)cc1 — outcome?
// result false

// query # lookup: test call for Cc1cc(Cl)nc(N(CCCNc2ccnc3cc(Cl)ccc23)Cc2cccs2)n1
// result true

// query Assay outcome for O=C(N/N=C\c1cc(Cl)ccc1[N+](=O)[O-])c1ccco1 : what was it?
// result false

// query Identify the outcome logged in this assay for the compound shown: Cc1c(Cl)cccc1NC(=O)c1sc2nc3c(cc2c1N)C(=O)CCC3
// result true

// query So what was the verdict on CCN(CCCCCCCCCCN1CC(=O)N(CCCCCCCCCCN(CC)Cc2ccccc2OC)CC1=O)Cc1ccccc1OC in this test?
// result true

// query # fetch the recorded call for CC(=O)[C@H]1CC[C@H]2[C@@H]3CCC4=CC(=O)C=C[C@]4(C)[C@H]3CC[C@]12C here
// result false

// query How was COc1ccc2c(c1)nc(N)c1c3cccnc3cn21 classified in this test?
// result true

// query // outcome(item) with item = O=C1OCC2=C1C(c1cccc(Cl)c1)c1cc3c(cc1N2CCO)CCC3 (stereo unspecified)
// result true

// query Identify the outcome logged in this assay for the compound shown: CCCCCCCCCCCCC1C/C=C\CCCC(=O)O1 (stereo unspecified)
// result false

// query Please share the test call associated with COc1cc(-c2cc(/C=C3\C(=O)Nc4ccccc43)[nH]n2)cc(OC)c1OC .
// result false

// query How did this test come out for CC(=O)C1CCC2C3CC(F)C4=CC(=O)CCC4(C)C3C(O)CC12C (stereo unspecified) ?
// result false

// query What is the recorded call for this compound in the test? O=C(Nc1cccc(-n2cc(-c3ccncc3)c(-c3ccc(O)c(Cl)c3)n2)c1)c1cc(C(F)(F)F)cc(C(F)(F)F)c1
// result false

// query Assay outcome for COc1cccc(Cn2c(-c3nonc3N)nc3ccccc32)c1 : what was it?
// result true

// query Look up the recorded call for O=[N+]([O-])c1cccc(N=Cc2ccc3c(c2)OCO3)c1 in this test.
// result false

// query Answer briefly: the call reported for O=C1/C(=C\c2ccc(F)cc2)CN(C(=O)c2ccccc2)C/C1=C\c1ccc(F)cc1 in this assay.
// result true

// query Returns: the outcome recorded for COc1ccc(-c2nc3sccn3c2-c2nc3c([nH]2)C(=O)c2ccccc2C3=O)cc1 in this assay.
// result false

// query Any idea what this test logged for COc1ccc2c(c1)N(CCO)C1=C(C(=O)OC1)C2c1ccc(OC)c(OC)c1 (stereo unspecified) ?
// result true

// query Record lookup: outcome of this test for CCOC(=O)N1C/C(=C/c2ccc(F)cc2)C(=O)/C(=C/c2ccc(F)cc2)C1 ?
// result true

// query Any idea what this test logged for Cc1cc(C)c(NC(=O)c2sc3nc4c(cc3c2N)C(=O)CCC4)c(C)c1 ?
// result true

// query # outcome recorded in this test, key = Cc1ccc(CC#N)cc1C
// result false

// query Any idea what this test logged for Nc1ncnc2[nH]c(=O)[nH]c12 ?
// result false

// query Which outcome was assigned to COc1cc(Cc2cc(-c3ccc(Cl)cc3)n[nH]c2=O)ccc1O in this test?
// result false

// query What was the test verdict on COc1cc(/C(=C2/O[C@@H]([C@H]3COC(C)(C)O3)[C@H]3OC(C)(C)O[C@@H]23)c2ccc3ccccc3c2)cc(OC)c1OC ?
// result false

// query Please let me know the test result on file for COc1cc2nc(Nc3cccc(NC(C)=O)c3)nc(N)c2cc1OC .
// result false

// query Short answer needed: outcome of this test for COc1ccc(-c2nc(-c3nc4cc(Cl)c(F)cc4[nH]3)c3ccccn23)cc1 ?
// result false

// query For this compound, state the assay outcome: COc1cc(-c2cc(-c3cc4c([nH]c5ccccc54)c(-c4cc(OC)c(OC)c(OC)c4)n3)cc(-c3ccccc3)n2)cc(OC)c1OC
// result true
